Tested on: A549/ATCC NSCLC
Assay: NCI-60 one-dose screen, 48 h
Conditions: 10 µM unless noted
The panel holds about 83,000 compounds, 20% with a hit somewhere; the sample as a whole holds those more often. The source made the active and inactive calls. The calls were made as follows: active = growth percent below 10; inactive = the rest.
Output constraint: value belongs to active, inactive

[[record]]
compound = "COc1ccc(CCN2C(=O)/C(=C/c3ccc(C4Oc5ccccc5C5CC(c6ccccc6)=NN54)cc3)SC2=S)cc1 (centres undefined)"
category = "inactive"

[[record]]
compound = "CCN(CC)CCN1C(=O)c2cccc3c(/C=C/CN4C(=O)c5cccc6cccc(c56)C4=O)ccc(c23)C1=O"
category = "inactive"

[[record]]
compound = "COC(=O)c1ccc(NC(=O)Nc2ccc(C(=O)OC)cc2)cc1"
category = "inactive"

[[record]]
compound = "O=C(C1CCCCC1)[C@@H]1[C@]2(C(=O)NC3CCCCC32)[C@@H]2CCCN2[C@@]12C(=O)NC1CCC(Cl)CC12 (some centres undefined)"
category = "active"

[[record]]
compound = "O=C(C1=Cc2cc3ccccc3n2Cc2cnnn21)c1ccc(O)cc1"
category = "inactive"

[[record]]
compound = "CN(C)S(=O)(=O)Oc1ccc(-c2sc3cc(OS(=O)(=O)N(C)C)ccc3c2C(=O)c2ccc(OCCN3CCCCC3)cc2)cc1"
category = "inactive"

[[record]]
compound = "Cc1nc2sc(C(=O)Nc3cccc(Br)c3C)c(N)c2cc1C(O)c1ccccc1 (centres undefined)"
category = "active"

[[record]]
compound = "COc1cccc(CNc2c3ccccc3nc3ccccc23)c1"
category = "inactive"


Here is another compound to look at.
Ask: So what was the verdict on Cc1nc2c(=O)nc3s/c(=C\c4ccco4)c(=O)n3c2nc1C in this test?
Result: inactive

* * *

Measured growth, listed per entry for reference.
Tested on: SK-OV-3 ovarian
Test: NCI-60 one-dose screen, 48 h (100 = growth as untreated, 0 = no growth, -100 = all killed)
Settings: 10 µM unless noted
This is part of a sample that, as a whole, favours compounds with a hit. Of some 83,000 tested, about 20% had one in any assay.
The reply should be a number in %, with the unit left off.

Worked examples, 4 molecules total:
[[record]]
chemicalstructure = "N#Cc1c(Nc2ccc(N3CCOCC3)cc2)nc(SCC(=O)c2ccc(Br)cc2)nc1-c1ccccc1"
observationtype = "growth"
resultvalue = 95

[[record]]
chemicalstructure = "CC1(C)CC[C@]23CC[C@]4(C)[C@H](CC[C@@H]5[C@@]6(C)C/C(=C/c7ccncc7)C(=O)C(C)(C)[C@@H]6CC[C@]54C)[C@H]2[C@H]1OC3"
observationtype = "growth"
resultvalue = 94.7

[[record]]
chemicalstructure = "C=C1CC[C@@H]2C(C)(C)[C@@H](O)CC[C@@]2(C)[C@@H]1COc1ccc2ccc(=O)oc2c1"
observationtype = "growth"
resultvalue = 112

[[record]]
chemicalstructure = "COc1ccc2c(c1)c(-c1nc(-c3c[nH]c4ncccc34)cs1)cn2CCCN1CCOCC1"
observationtype = "growth"
resultvalue = 51.8


Now consider a different molecule.
Ask: Missing value: growth, SK-OV-3 ovarian, entry COc1ccc(Nc2ncccc2/C=C/C(=O)c2cc(OC)c(OC)c(OC)c2)cc1 . Fill in?
Result: 64.6

* * *

Tested on: OVCAR-3 ovarian
Assay: NCI-60 one-dose screen, 48 h (100 = growth as untreated, 0 = no growth, -100 = all killed)
Conditions: 10 µM unless noted
This is part of a sample that, as a whole, favours compounds with a hit. Of some 83,000 tested, about 20% had one in any assay.
observationType: growth (%)
The reply should be a number in %, with the unit left off.

Ask: Query (compound): O=C(Nc1ncccc1OCc1ccccc1)NC1CCCCCC1 ; field requested: growth
Result: 89.1

Ask: Query (compound): CN1C(=O)/C(=C2\SC(=Nc3ccccc3)N(Nc3ccccc3)C2=O)c2ccccc21 ; field requested: growth
Result: 110

Ask: Query (compound): C[C@H](CCCC(=O)NCC#CCN1CCN(C)CC1)[C@H]1CC[C@H]2[C@@H]3CC[C@@H]4CC(=O)CC[C@]4(C)[C@H]3CC[C@]12C ; field requested: growth
Result: 91.5

Ask: Query (compound): CC1C(/C=N/NC(N)=S)C(C#N)(C#N)C1(C#N)C#N (stereo not given) ; field requested: growth
Result: 107

Ask: Query (compound): CCOC(=O)c1nn(CC(O)c2ccccc2)c(NC(=O)Nc2cccc(F)c2)c1C (stereo not given) ; field requested: growth
Result: 102

* * *

Test system: NCI-H226 lung
Experiment: NCI-60 one-dose screen, 48 h (100 = growth as untreated, 0 = no growth, -100 = all killed)
Conditions: 10 µM unless noted
Compounds without any hit were thinned out: in the full panel of roughly 83,000, 20% have a hit. The source made the active and inactive calls. Rule for the calls: active = growth percent below 10; inactive = the rest.
Measured growth, listed per entry for reference.

Worked examples, 10 compounds total:
[[record]]
compound = "S=C(c1ccc2c(c1)OCO2)N1CCN(c2cccc(Cl)c2)CC1"
observationtype = "growth"
resultvalue = "34.2% (inactive)"

[[record]]
compound = "CCOC(=O)c1[nH]c2c(c1C)-c1[nH]c(=O)c(S(=O)(=O)c3ccccc3)cc1SC2"
observationtype = "growth"
resultvalue = "37.9% [100 µM] (inactive)"

[[record]]
compound = "O=C(CCCCCNC(=O)c1cc(=O)c(O)co1)Nc1ccccc1"
observationtype = "growth"
resultvalue = "105% (inactive)"

[[record]]
compound = "CCN(CC)CCN1C(=O)c2c(c(C)c3c(oc4ccc(O)cc43)c2C)C1=O"
observationtype = "growth"
resultvalue = "70% (inactive)"

[[record]]
compound = "CCN(CC)CCCOc1ccc2ncnc(Nc3ccc(Oc4cccc(C(F)(F)F)c4)c(Cl)c3)c2c1"
observationtype = "growth"
resultvalue = "73.1% (inactive)"

[[record]]
compound = "Cc1ccc(C)c(/C=C2\\CN(C(=O)OC(C)(C)C)C/C(=C\\c3cc(C)ccc3C)C2=O)c1"
observationtype = "growth"
resultvalue = "89% (inactive)"

[[record]]
compound = "Nc1nc2c(c3ncccc13)C(c1cccc(Cl)c1)Cc1ncccc1-2 (centres undefined)"
observationtype = "growth"
resultvalue = "75.8% (inactive)"

[[record]]
compound = "O=C(Nc1ncccc1OCc1ccccc1)NC1CCCCCC1"
observationtype = "growth"
resultvalue = "73.8% (inactive)"

[[record]]
compound = "COc1cc(C(=O)n2nc(N3CCOCC3)c3cc(-n4cccc4)ccc32)cc(OC)c1OC"
observationtype = "growth"
resultvalue = "69.3% (inactive)"

[[record]]
compound = "Cc1ccnc(Nc2ccc([N+](=O)[O-])c(NCCN3CCOCC3)n2)c1"
observationtype = "growth"
resultvalue = "24.5% (inactive)"


Ask: Query (compound): C/C(Cc1ccc(Cl)cc1)=C(\c1ccc(OCCCN(C)C)cc1)c1ccc(OC(=O)Cc2ccccc2)cc1 ; field requested: growth
Result: 110% (inactive)

Ask: Query (compound): O=[N+]([O-])c1cc(NS(=O)(=O)c2ccccc2)ccc1NS(=O)(=O)c1ccccc1 ; field requested: growth
Result: 104% (inactive)

Ask: Query (compound): COc1ccc(C#Cc2ccc(=O)oc2-c2cc(OC)c(OC)c(OC)c2)cc1O ; field requested: growth
Result: 71.3% (inactive)

Ask: Query (compound): CC1(C)CC[C@]2(C(=O)N[C@H](CO)Cc3ccccc3)CC[C@]3(C)C(=CC[C@@H]4[C@@]5(C)CCCNC(C)(C)[C@@H]5CC[C@]43C)[C@@H]2C1 ; field requested: growth
Result: 91.1% (inactive)

Ask: Query (compound): CN1CCN(Cc2ccc(NC(=O)c3cncc(C#Cc4cnc(N)c5ccc(F)cc45)c3)cc2C(F)(F)F)CC1 ; field requested: growth
Result: 28.2% (inactive)

* * *

Measured growth, listed per entry for reference.
System: SNB-19 CNS
Assay: NCI-60 one-dose screen, 48 h (100 = growth as untreated, 0 = no growth, -100 = all killed)
Conditions: 10 µM unless noted
The panel holds about 83,000 compounds, 20% with a hit somewhere; the sample as a whole holds those more often. Calls of active or inactive are those of the source. Rule for the calls: active = growth percent below 10; inactive = the rest.

Worked examples, 3 molecules total:
[[record]]
molecule = "C=C(CNCCc1ccc(O)cc1)[C@@H]1CC[C@]2(CO)CC[C@]3(C)[C@H](CC[C@@H]4[C@@]5(C)CCC(=O)C(C)(C)[C@@H]5CC[C@]43C)[C@@H]12"
resultvalue = "49% (inactive)"

[[record]]
molecule = "COc1ccc(C(O)c2cc3c(N)c(C(=O)Nc4cccc(Cl)c4C)sc3nc2C)cc1 (centres undefined)"
resultvalue = "39% (inactive)"

[[record]]
molecule = "Cc1nn(-c2cc(NC3CCC(O)CC3)c3c(=O)[nH]c(CCC(F)(F)F)cc3c2)c2c1C(=O)CC(C)(C)C2 (centres undefined)"
resultvalue = "63.1% (inactive)"


Now consider a different molecule.
Ask: Missing value: growth, SNB-19 CNS, entry COc1cc(NC(=O)c2cncnc2Nc2ccc3c(ccn3Cc3ccccn3)c2)cc(OC)c1 . Fill in?
Result: 58.3% (inactive)

The values you see were collected from PubChem BioAssay (NCI).
